# Test name: Nrf2 qHTS screen for inhibitors; further: nearly all actives have a fitted effect of over 60% in size; further: potency means the concentration at half of the fitted maximal effect
# Assay setup: A549 ARE-Fluc reporter, luciferase luminescence, 18-24 h; series mostly up to 46 µM
Out of some 360,000 compounds screened, about 7,500 (2.1%) were called active. Inconclusive results (about 20%) are left out. The sample as a whole holds a higher share of actives than the screen did.
Metric name: Potency

- Molecule: "CC(C)NC(=O)Nc1cccc2c1O[C@H](CN(C)S(=O)(=O)c1cccs1)[C@@H](C)CN([C@H](C)CO)C2=O"
  Potency: "inactive"
- Molecule: "COc1cccc(CNC(=O)CSc2c3c(nc4cc(Cl)ccc24)CCCC3)c1"
  Potency: "inactive"
- Molecule: "Cc1ccc(S(=O)(=O)NCC2CCC(C(=O)N3CCOCC3)CC2)cc1 (stereo not given)"
  Potency: "inactive"
- Molecule: "c1ccc(Cn2nnc3c(N4CCCCC4)ncnc32)cc1"
  Potency: "inactive"
- Molecule: "CCc1ccc(CN(C)C(=O)CCc2nnc(-c3ccc(-c4ccccc4)cc3)o2)nc1"
  Potency: "18.4 µM (active)"

Look up Potency for this molecule: Cc1ccc(C)c(N2CCN(C(=O)C3CCC(CNS(=O)(=O)c4cccs4)CC3)CC2)c1 (stereo not given)
18.4 µM (active)

Can you share its Potency? I mean this molecule: "COc1cccc(OC2=NS(=O)(=O)c3ccccc32)c1"
inactive

Look up Potency for this molecule: "Cc1ccc2ccc3c(c2n1)NS(=O)(=O)c1ccccc1-3"
20.6 µM (active)

If you can, please state the reported Potency value of "Cc1ccc(-n2c(SCC(=O)N3c4ccccc4Sc4ccccc43)nnc2-c2ccncc2)cc1" .
inactive

Query (molecule): "N#Cc1cc([N+](=O)[O-])ccc1Oc1cccc(/C=N/NC(=O)c2ccc(Cl)cc2)c1" ; field requested: Potency
5.8 µM (active)

// returns reported Potency for input "Cc1ccccc1C(=O)NCCN=C1NS(=O)(=O)c2ccccc21"
inactive

Look up Potency: "O=C(CCCCn1c(=O)c2ccccc2n(CC(=O)Nc2cccc(C(F)(F)F)c2)c1=O)NCc1ccc2c(c1)OCO2"
inactive

Quick one: Potency of COc1cccc(CNC(=O)C2CCC(CNS(=O)(=O)c3cccs3)CC2)c1 (stereo not given) ?
inactive

Tell me the measured Potency of "COc1ccc(NS(=O)(=O)c2cc(NC(=O)/C=C/c3cc(OC)c(OC)c(OC)c3)ccc2N2CCCCC2)cc1" , please.
inactive
